These entries and their values trace back to paper PMC9804910.

# Test system: CT‐26 (mouse colon adenocarcinoma)
# EXPERIMENT: Fluorometric cell viability assay (Resazurin), 2D monolayer
# Format: cell-based
# EXPERIMENTAL_CONDITIONS: CT‐26, 48 h
pIC50: −log10 of the molar value.
ENDPOINT_NAME: pIC50

a. Cc1occc(=O)c1[O-].F[P-](F)(F)(F)(F)F.[Ru+2].c1ccc(-c2ccnc3c2ccc2c(-c4ccccc4)ccnc23)cc1.c1ccc(-c2ccnc3c2ccc2c(-c4ccccc4)ccnc23)cc1 [Compound 1, [Ru(DIP)2(mlt)](PF6), reference compound]
b. O=C([O-])C(=O)[O-].[Ru+2].c1ccc(-c2ccnc3c2ccc2c(-c4ccccc4)ccnc23)cc1.c1ccc(-c2ccnc3c2ccc2c(-c4ccccc4)ccnc23)cc1 [Compound 5, [Ru(DIP)2(η^2‐ox)]]
Input line: Between item a and item b , which reported pIC50 is smaller? Choose, then provide that item's label.
Output line: b

I. CC(=O)C=C(C)[O-].[Cl-].[Ru+2].c1ccc(-c2ccnc3c2ccc2c(-c4ccccc4)ccnc23)cc1.c1ccc(-c2ccnc3c2ccc2c(-c4ccccc4)ccnc23)cc1 [Compound 4, [Ru(DIP)2(η^2‐acac)]Cl]
II. CC(=O)C=C(C)[O-].[Cl-].[Ru+2].c1cnc2c(c1)ccc1cccnc12.c1cnc2c(c1)ccc1cccnc12 [Compound 7, [Ru(phen)2(η^2‐acac)]Cl]
Input line: Lab note: check whether I or II has the lower measured pIC50. Pick one; state its label.
Output line: II
